System: PPARg DBDmut IVT, anti-PPARg (DBD mutation: PPARg1 K132A/R137A, NR concentration 270 nM)
experimentSummary: PBM binding z-score (relative to random genomic background probes); higher = stronger binding; sequences stand for … in GC…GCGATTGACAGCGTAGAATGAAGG
valueKind: PBM binding z-score
Just the number, please, no unit after it.

Quick one: PBM binding z-score for "ACTATTTGTTGAGACGAGGGCAACCGATAGGTTG" ?
1.09

Quick one: PBM binding z-score for "CCTACTGGGCCAAAGGGCATTGATTCCAATGCTC" ?
-0.625

Quick one: PBM binding z-score for "TCCATTAGTTGAAGGGCAACCGACGAGTCCGTTT" ?
0.783

Quick one: PBM binding z-score for "AATACAGGGTCATCGTAGGCAAGAGTACGCACAG" ?
1.49

Quick one: PBM binding z-score for "TCATATAGGTAATACAGCTGAAAGTCGGCATCTA" ?
1.18

Quick one: PBM binding z-score for "TCATATAGGTAAACAGTTGAAAGTCCGTAAGTTA" ?
0.905

Quick one: PBM binding z-score for "TCTTGTAGATCAAGGAGGTTAAGAAAGCCTGAGT" ?
0.0101

Quick one: PBM binding z-score for "TATACAGGGTCAAAGGCCGGAGTACGAATGTCGA" ?
1.88

Quick one: PBM binding z-score for "CCTCGGAGGACAACAGGCGGTCAGAGCTGCCAGA" ?
-1.37

Quick one: PBM binding z-score for "ACATACAGGTGATGAAGGTAACTCAGGCTATCAT" ?
0.566

Quick one: PBM binding z-score for "CCTACTGGGCCCTTCAGAGGTCATTGATCATATG" ?
-0.628

Quick one: PBM binding z-score for "AAAACAGGGTCACTAGGCCAGAGTAGGTACGAAT" ?
1.25

Quick one: PBM binding z-score for "ATCTCTAGGGAAGACTCAGTTCAGTGAAGAACGC" ?
0.331

Quick one: PBM binding z-score for "TCTAGCAGGTCAGAGGGTCACTCAAGAGGTACGG" ?
-0.567

Quick one: PBM binding z-score for "TTGAGTAGGTTAGTCGGGGCATTCAGCCAACATA" ?
0.257

Quick one: PBM binding z-score for "TCTTGTAGATCAAAGGTTAAGAACGCCGAAGCCT" ?
0.234

Quick one: PBM binding z-score for "ACAGACATGTGAGTGAAGGTAACTCAGCTGGACG" ?
-0.0853

Quick one: PBM binding z-score for "CCAGACAGGTGAAAGGTAACTCGGTCTGGTACGC" ?
-1.24

Quick one: PBM binding z-score for "TCTTGTAGATCAACAGGGGGTTAAGAAAGATCGA" ?
7.46

Quick one: PBM binding z-score for "AATACAGGGTCACTAGGCCAGATTAGGTACGAAT" ?
3.15

Quick one: PBM binding z-score for "CCTACTGGGCCAAAAAGCTCATTGATGCCGATAA" ?
-0.936

Quick one: PBM binding z-score for "TCTAGTTGGTCACGGAAGTCACACACGACGGGTA" ?
0.841

Quick one: PBM binding z-score for "GATTCAGGGTCAAGGCCAGAGTACGCGTATTGAT" ?
0.0606

Quick one: PBM binding z-score for "AATACAGGGTCATCGTAGGCCAGGGTACGCACAG" ?
1.18

Quick one: PBM binding z-score for "TCTCGGAGGACACGAAAGGTCAGCGCTCGACATC" ?
0.158

Quick one: PBM binding z-score for "CGAACAAGGTCAAGGACAGTGAATCTCCGCACGC" ?
0.251

Quick one: PBM binding z-score for "CCTAGCAGGTCAGGGTCACTCAAGCATTTCGCTT" ?
-1.12

Quick one: PBM binding z-score for "CAAACTAGGTCAAAGGTCAAAGGCGAGCCAACCA" ?
2.24

Quick one: PBM binding z-score for "TCTTTTAGATCAAAGGTTAAGAAAGCCGAAGCCT" ?
1.12

Quick one: PBM binding z-score for "GATACAGGATCAGCTAGAGGCCAGAGTATGGAAA" ?
-0.748

Quick one: PBM binding z-score for "CGTCAAAGTGCAAGGTAACGTAACAGAAAGCAGC" ?
-0.0811

Quick one: PBM binding z-score for "CCTAGTTGGTCAGGATGTCACACACCGGATATGA" ?
0.583

Quick one: PBM binding z-score for "AAAACGAGGGCACGCTGAGTTGATAGCAGAGTAG" ?
0.145

Quick one: PBM binding z-score for "ATCCAAAGGTCGAAGGTGAGTATACCCACCCGAA" ?
0.999

Quick one: PBM binding z-score for "GCTATTACTTGAAAGGGCAACCGAATGATTCTCG" ?
0.326

Quick one: PBM binding z-score for "CAAACTAGGTCAAGGTAAAAGTCGGTTTGTGCCA" ?
0.73

Quick one: PBM binding z-score for "CCGACTGGGGCAGAAAGGTTAGCATACCATCCGG" ?
-1.16

Quick one: PBM binding z-score for "GATACAGGGTAAGCTAGAGGCCAGAGTATGGAAA" ?
-0.173

Quick one: PBM binding z-score for "AGAACGAGGGCACGCTAAGTTGATAGCAGAGTAG" ?
0.754

Quick one: PBM binding z-score for "GGAACGAGGGCAAGTTGATCGCAGAGTTTGATGG" ?
-0.887

Quick one: PBM binding z-score for "CCTCGGAGGACCACAGGAGGTCAGAGCTGCCAGA" ?
-1.46

Quick one: PBM binding z-score for "CGAACTAGGTTAAGGACAGTGAATCTCCGCACGC" ?
1.14

Quick one: PBM binding z-score for "CGTCAAAGTTCAAGGTAACGTACCAGAAAGCAGC" ?
0.599

Quick one: PBM binding z-score for "GCGGCTGGGGCATCAGCAGGTTACCATAACTTAA" ?
-0.84

Quick one: PBM binding z-score for "ACTCGGAGGACAAAGGTCTGAGCTACGCCAGTGA" ?
-1.15

Quick one: PBM binding z-score for "GACACAGGGTCAAGGCCAGAGTACGCGTATTGAT" ?
-0.363

Quick one: PBM binding z-score for "TAGCCTAGGTAATGCGGGCCAGTATAGTGTCGGC" ?
-0.721

Quick one: PBM binding z-score for "ATCTCTAGGTAAAGTTCAGTGACAGATCGATAGA" ?
2.1

Quick one: PBM binding z-score for "GGAACGAGGGCAAGTTGATGGCAGAGTTTGATGG" ?
-0.96

Quick one: PBM binding z-score for "CTACCAAGGTGAACAAGGTCGCTGATTACTATTC" ?
0.423

Quick one: PBM binding z-score for "ACAGACAGGTGATGAAGCTAACTCAGGCTATCAT" ?
0.232
